Please go through the items and note down their DC50.
target: IRAK4 (Homo sapiens, UniProt Q9NWZ3); test: Hibit fluorescence detection of proteolysis (IRAK4-HiBiT in HEK293T cells); type: cell-based; parameters: host or cells: HEK293T (ATCC); details: IRAK4-HiBiT, HEK293T cells, 24 h; read-out: DC50
Sequence (Q9NWZ3 whole entry, species assumed): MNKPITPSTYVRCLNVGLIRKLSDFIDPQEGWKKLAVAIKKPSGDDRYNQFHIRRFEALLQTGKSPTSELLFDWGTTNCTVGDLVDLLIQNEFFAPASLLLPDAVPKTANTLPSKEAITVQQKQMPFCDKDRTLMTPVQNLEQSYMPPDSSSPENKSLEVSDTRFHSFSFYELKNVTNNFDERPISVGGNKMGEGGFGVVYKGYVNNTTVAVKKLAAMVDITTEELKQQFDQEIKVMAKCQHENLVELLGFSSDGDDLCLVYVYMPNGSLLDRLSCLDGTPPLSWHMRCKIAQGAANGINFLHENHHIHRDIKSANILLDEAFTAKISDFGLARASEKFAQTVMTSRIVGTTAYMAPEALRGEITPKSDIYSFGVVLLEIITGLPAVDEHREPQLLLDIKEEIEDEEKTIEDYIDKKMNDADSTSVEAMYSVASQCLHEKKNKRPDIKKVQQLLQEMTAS

>  <Compound>
Cc1c(/C=C2\C(=O)Nc3ccc(S(=O)(=O)Nc4ccc(F)cc4)cc32)[nH]c2cc(N3CCN(CC4CCN(c5ccc(C(=O)NC6CCC(=O)NC6=O)c(F)c5)CC4)CC3)ccc12 (centres unmarked) [Example 22]

>  <DC50>
> 5 nM

$$$$
>  <Compound>
Cn1c(=O)n(C2CCC(=O)NC2=O)c2cccc(N3CCN(C[C@H]4CC[C@H](n5cc(-n6cc(-c7cnn8ccc(NCCC(C)(C)O)nc78)nn6)c(C(F)F)n5)CC4)CC3)c21 (some centres unmarked) [Compound 239]

>  <DC50>
< 0.5 nM

$$$$
>  <Compound>
CN1CCN(c2ccn3ncc(-c4cn(-c5cn([C@H]6CC[C@H](CN7CCN(C8CCN(c9cccc%10c9n(C)c(=O)n%10C9CCC(=O)NC9=O)CC8)CC7)CC6)nc5C(F)F)nn4)c3n2)CC1 (some centres unmarked) [Compound 231]

>  <DC50>
0.5 to 1 nM

$$$$

Provide each entry's DC50 from the list below.
1. Cn1c(=O)n(C2CCC(=O)NC2=O)c2cccc(N3CCN(C4CCN(C[C@H]5CC[C@H](n6cc(-n7cc(-c8cnn9cc(C#N)cnc89)nn7)c(C(F)F)n6)CC5)CC4)CC3)c21 (some centres unmarked) [Compound 206]
2. Cn1c(=O)n(C2CCC(=O)NC2=O)c2cccc(N3CCC4(CCN(C[C@H]5CC[C@H](n6cc(-n7cc(-c8cnn9cc(C#N)cnc89)nn7)c(C(F)F)n6)CC5)C4)CC3)c21 (some centres unmarked) [Compound 189]

Response:
1: 0.5 to 1 nM; 2: 0.5 to 1 nM

###

Field: DC50. Provide a value for each of the compounds that follow.
target: IRAK4 (Homo sapiens); experiment: Hibit fluorescence detection of proteolysis (IRAK4-HiBiT in HEK293T cells); assay type: cell-based; parameters: host or cells: HEK293T (ATCC); conditions: IRAK4-HiBiT, HEK293T cells, 24 h

>  <Compound>
C[C@H]1CN(c2cccc3c2n(C)c(=O)n3C2CCC(=O)NC2=O)CCN1C[C@H]1CC[C@H](n2cc(-n3cc(-n4ccc5cc(C(N)=O)cnc54)nn3)c(C(F)F)n2)CC1 (some centres unmarked)

>  <Subject Of Test>
IRAK4 (Homo sapiens)

>  <DC50>
< 0.5 nM

$$$$
>  <Compound>
NC(=O)c1cnn2c(-c3cn(-c4cn([C@H]5CC[C@H](CN6CC7(CC(CCNc8cccc9c8C(=O)N(C8CCC(=O)NC8=O)C9=O)C7)C6)CC5)nc4C(F)F)nn3)ccc2c1 (some centres unmarked)

>  <Subject Of Test>
IRAK4 (Homo sapiens)

>  <DC50>
< 0.5 nM

$$$$
>  <Compound>
Cn1c(=O)n(C2CCC(=O)NC2=O)c2cccc(N3CCC4(CCN(C[C@H]5CC[C@H](n6cc(-n7cc(-c8ccc9cc(C(N)=O)cnn89)nn7)c(C(F)F)n6)CC5)C4)CC3)c21 (some centres unmarked)

>  <Subject Of Test>
IRAK4 (Homo sapiens)

>  <DC50>
< 0.5 nM

$$$$
>  <Compound>
Cn1c(=O)n(C2CCC(=O)NC2=O)c2cccc(N3CC4(CCN(C[C@H]5CC[C@H](n6cc(-n7cc(-c8cnn9ccc(N%10CCOCC%10)nc89)nn7)c(C(F)F)n6)CC5)CC4)C3)c21 (some centres unmarked)

>  <Subject Of Test>
IRAK4 (Homo sapiens)

>  <DC50>
< 0.5 nM

$$$$

Proceed to the following item.
For this compound ( O=C1CCC(NC(=O)c2ccc(N3CCN(C[C@H]4CC[C@H](n5cc(-n6cc(-c7cnn8ccc(N9CCOCC9)nc78)nn6)c(C(F)F)n5)CC4)CC3)cc2F)C(=O)N1 (some centres unmarked) ), measured DC50 is > 5 nM
